Measured optical density of individual entries
target: Mouse ACVR2A (mouse, UniProt P27038 20-135, limits assumed); test: ELISA; further: test concentration or dose not given here
Sequence (P27038 20-135 limits assumed): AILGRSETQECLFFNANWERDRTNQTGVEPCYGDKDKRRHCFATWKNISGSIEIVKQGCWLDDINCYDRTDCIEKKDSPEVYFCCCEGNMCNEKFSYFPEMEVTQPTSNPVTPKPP
TEST_READOUT: optical density (OD)

[[record]]
binder = "367_G10 (antibody, V domains shown) VH: EVQLLESGGGLVQPGGSLRLSCAASGFTFDDYGMNWVRQAPGKGLEWVSGINYNGGYTSYADSVKGRFTISRDNSKNTLYLQMNSLRAEDTAVYYCARSANWHDTALDYWGQGTLVTVSS VL: DIQMTQSPSSLSASVGDRVTITCRASQSIISYVNWYQQKPGKAPKLLIYAATSRASGVPSRFSGSGSGTDFTLTISSLQPEDFATYYCQQSYDSPLTFGGGTKVEIK"
result = 2.32

[[record]]
binder = "370_D04 (antibody, V domains shown) VH: EVQLLESGGGLVQPGGSLRLSCAASGFTFDSYSMNWVRQAPGKGLEWVANINYNSGYKGYADSVKGRFTISRDNSKNTLYLQMNSLRAEDTAVYYCARSANWHDTALDYWGQGTLVTVSS VL: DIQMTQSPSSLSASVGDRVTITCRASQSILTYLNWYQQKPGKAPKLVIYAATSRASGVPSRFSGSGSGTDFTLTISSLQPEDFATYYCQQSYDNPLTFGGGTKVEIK"
result = 3.74

[[record]]
binder = "373_E05 (antibody, V domains shown) VH: EVQLLESGGGLVQPGGSLRLSCAASGFTFDSYGMNWVRQAPGKGLEWVSNINYNGGYTSYADSVKGRFTISRDNSKNTLYLQMNSLRAEDTAVYYCARSANWHDTALDYWGQGTLVTVSS VL: DIQMTQSPSSLSASVGDRVTITCRASQSILSYVNWYQQKPGKAPKLLIYAVTSRASGVPSRFSGSGSGTDFTLTISSLQPEDFATYYCQQSYDLPLTFGGGTKVEIK"
result = 3.59

